Listed below: protein stability index values for each entry.
B1: C10orf62 (parent)
chain: RALEEVEMKLQKNFLTQRENTIAG

- Variants of: B1
- assaySummary: protein stability index of a GFP-peptide fusion (GPS, HEK-293T) (PSI 1-6); higher = more stable;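 further: lentivirally expressed fusions sorted by FACS into six bins by GFP to DsRed ratio, PSI derived from sequencing read proportions per bin multiplied by bin number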
- settings: c terminus: a fixed tail appended
Keep it simple and answer with nothing but the number.

Study these solved cases before continuing.
INSERT INTO assay_data (querysequence, reported) VALUES
  ('RALEEVEMKLQKNFLTQRENTHAG [I22H]', 3.8),
  ('RAGEEVEMKLQKNFLTQRENTIAG [L3G]', 4.31),
  ('RMLEEVEMKLQKNFLTQRENTIAG [A2M]', 2.6);

For RGLEEVEMKLQKNFLTQRENTIAG [A2G] , write its protein stability index. 4.1

Data provenance: the supplement of paper PMC10567573
